# subject_of_test: T1, human full-length CD73 on hCD73-CHO-1C11 cells (human, UniProt P21589 27-549)
# T1 construct: it may be a nucleotide entry; also called CHO-CD73-1C11
# T1 sequence: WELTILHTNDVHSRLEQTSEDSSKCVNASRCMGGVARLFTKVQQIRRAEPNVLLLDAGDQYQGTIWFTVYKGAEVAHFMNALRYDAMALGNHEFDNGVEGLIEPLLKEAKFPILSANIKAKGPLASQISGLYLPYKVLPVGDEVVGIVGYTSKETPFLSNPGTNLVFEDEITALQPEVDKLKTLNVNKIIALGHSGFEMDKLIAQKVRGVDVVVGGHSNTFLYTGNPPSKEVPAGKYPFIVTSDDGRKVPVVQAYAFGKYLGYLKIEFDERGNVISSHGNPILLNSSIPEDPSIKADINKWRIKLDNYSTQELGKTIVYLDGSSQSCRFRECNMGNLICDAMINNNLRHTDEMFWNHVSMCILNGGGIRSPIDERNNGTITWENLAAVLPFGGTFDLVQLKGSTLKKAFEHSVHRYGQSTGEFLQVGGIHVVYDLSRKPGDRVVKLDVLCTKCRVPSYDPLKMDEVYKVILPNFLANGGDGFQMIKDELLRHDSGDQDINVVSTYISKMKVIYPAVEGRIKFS
# experiment_description: FACS on CHO-CD73-1C11 cells
pEC50: −log10 of the molar value.
This section presents binders with their documented pEC50 values.
measurement_type: pEC50

# binder, measurement_type, reported_measurement
data = [
    ("CD73 antibody 2D4 (antibody, V domains shown, also called Clone 2D4) VH: EVKLVESGGGLVQPGGSLKLSCATSGFTFSDYYMYWVRQTPEKRLEWVAYISNVGGSTYYPDTVKGRFTISRDNAKNTLYLQMSRLKSEDTAIYYCARGDGYYGYYFDVWGAGTTVTVSS VL: QIVLTQSPAIMSASPGEKVTMTCSASSSVSYMHWYQQKSGTSPKRWIYDTSKLASGVPARFSGSGSGTSYSLTISSMEAEDAATYYCQQWSSNPYTFGGGTKLEIK", "pEC50", 8.75),
    ("CD73 antibody 6G8 (chimeric) (antibody, V domains shown, Mouse variable regions on human IgG heavy chain constant region and human kappa constant region (chimeric IgG); also called Clone 6G8; 6G8 Chimera) VH: QVTLKESGPGILKPSQTLSLTCSFSGFSLNTSGMGVGWIRQPSGKGLEWLAHIWWDDDKYYNPSLKSQLTISKDTSRNQVFLRIASVDTADTATYYCARRERWAWFAYWGQGTLVTVSA VL: DIVMTQSQKFMSASVGDRVSVTCKASQNVFTNVAWYQQKPGQSPKVLIYSASYRYSGVPDRFTGSGSGTDFTLTINNVQSEDLAEYFCQQYNSYPTFGSGTKLEIK", "pEC50", 8.72),
    ("CD73 antibody 14E4 (antibody, V domains shown, Mouse variable regions on human IgG heavy chain constant region and human kappa constant region (chimeric IgG); also called Clone 14E4) VH: QVQLQQSGPELVKPGASVKISCKASGYIFTNYYIHWVKQRPGQGLEWIGWIFPGSGNTKYSEKFKDKATLTADTSSSTAYMQLSSLTSEDSAVYFCAGLSDWGQGTTLTVSS VL: DIQMTQSPSSLSASLGERVSLTCRASQDIGDRLIWLQQEPAGTFKRLIYATSSLDSGVPKRFSGSRSGSDYSLTISSLESEDFVDYYCLQYASSPWTFGGGTKLEIK", "pEC50", 8.18),
]
